Where do the numbers come from? From PubChem BioAssay (NCATS).

- Tested on: Zika virus NS2B-NS3 protease (unlinked complex)
- procedure_details: Primary screen GU Rhodamine qHTS for Zika virus inhibitors: Unlinked NS2B-NS3 protease assay (AID 1347159); also: nearly all actives have a fitted effect of over 60% in size
- experimental_parameters: Recombinant ZIKV NS2B-NS3 protease, Rhodamine110 substrate fluorescence; series mostly up to 107 µM
Inconclusive results are not listed. Activity calls are given as the source filed them. Calls follow the shape of the dose curve; as a rule, active = well fitted inhibition curve with a large enough effect; inconclusive = small, poorly fitted or top-dose-only effect; inactive = no such curve, though single readings can be large or run the other way.
Outcome field: choose from active, inactive

Sample answers from the record:
{"compound": "NC1(Cc2ccc(Cl)cc2)CCN(c2ncnc3[nH]ccc23)CC1", "class": "inactive"}
{"compound": "COCCOc1ccc2c(c1)ncn2-c1ccc2cccc(N3CCC(N)CC3)c2n1", "class": "inactive"}
{"compound": "Cc1c(CN2CCN(S(C)(=O)=O)CC2)sc2c(N3CCOCC3)nc(-c3cnc(N)nc3)nc12", "class": "inactive"}

Fill in: this test's call for "Nc1ncnc2c1c(-c1cnc3[nH]ccc3c1)nn2C1CCCC1" is ___
inactive

Which outcome did this test record for the compound "Cc1cc(CN2CCN(c3c(Br)cnc4nc(-c5ccc(N6CCN(C)CC6)cc5)[nH]c34)CC2)no1" ?
inactive

Any idea what this test logged for "CNC(=O)c1c(F)cccc1Nc1nc(Nc2cc3c(cc2OC)CCN3C(=O)CN(C)C)nc2[nH]ccc12" ?
inactive

Recorded test outcome, item "COc1cc2nccc(Oc3ccc(NC(=O)C4(C(=O)Nc5ccc(F)cc5)CC4)cc3)c2cc1OC"
inactive

Any idea what this test logged for "Cc1cn2cc(C(=O)N(C)CCO)cc(N[C@@H]3CCOc4cccc(C)c43)c2n1" ?
inactive

Write down the call the test reported for this compound. Item: CCOC(=O)C1=C(C)NC2=C(C(=O)CC(C)(C)C2)C1c1ccc(-c2ccccc2)cc1 (stereo not drawn)
inactive

Which outcome did this test record for the compound "CC(C)c1cc(-c2n[nH]c(=O)n2-c2ccc3c(ccn3C)c2)c(O)cc1O" ?
inactive

Field: outcome | Entry: "O=C(O)Cn1nnc(-c2cc(N3CCC(Oc4cc(F)ccc4Br)CC3)no2)n1"
active

Entry "COc1cccc2c(NCc3ccccc3)nc(-n3c(N)nc4ccccc43)nc12" : call = ?
active

What did this assay record as the result for "Nc1ccccc1NC(=O)c1ccc(CNc2nccc(-c3cccnc3)n2)cc1" ?
inactive

====

- procedure_details: Quantitative High-Throughput drug screen in 47 multiple myeloma cell lines against the NCATS MIPE library collection: JIM3_ECACC cell viability assay (AID 1918963; also: nearly all actives have a fitted effect of over 35% in size)
- experimental_parameters: JIM3 myeloma viability, CellTiter-Glo ATP, 48 h; series mostly up to 45.8 µM
Records with an inconclusive call do not appear. Active and inactive are the calls of the source. Calls come from the whole dose curve; as a rule, active = well fitted cell-killing curve with a large enough effect; inconclusive = small, poorly fitted or top-dose-only effect; inactive = no such curve, though single readings can be large or run the other way.
Respond only with the outcome that fits, drawn from active, inactive

Here are 2 compounds together with their reported answers.
{"compound": "CN1CC[C@@H](c2c(O)cc(O)c3c(=O)cc(-c4ccccc4Cl)oc23)[C@@H](O)C1", "class": "active"}
{"compound": "CC(C)c1nn(-c2c(Cl)cccc2Cl)c2nc(Cc3ccc(OCCO)cc3)[nH]c(=O)c12", "class": "active"}

Write down the call the test reported for this compound. Item: COc1ccc(CC2SC(=O)NC2=O)cc1C(=O)NCc1ccc(C(F)(F)F)cc1 (configuration not stated)
inactive

Outcome? "Cc1cnc(Nc2ccc(F)cc2Cl)nc1-c1c[nH]c(C(=O)N[C@H](CO)c2cccc(Cl)c2)c1"
active

Returns: the outcome recorded for "Cc1c(C)n(Cc2ccc(-c3ccccc3C(=O)O)cc2)c2ccc(C(=O)N[C@@H](C)c3ccc([N+](=O)[O-])cc3)cc12" in this assay.
active

====

- procedure_details: Quantitative High-Throughput drug screen in 47 multiple myeloma cell lines against the NCATS MIPE library collection: KMS28BM_JCRB cell viability assay (AID 1919874); also: nearly all actives have a fitted effect of over 35% in size
- experimental_parameters: CellTiter-Glo ATP, 48 h; series mostly up to 45.8 µM
Records with an inconclusive call do not appear. Activity calls are given as the source filed them. Calls follow the shape of the dose curve; as a rule, active = well fitted cell-killing curve with a large enough effect; inconclusive = small, poorly fitted or top-dose-only effect, or effect the other way; inactive = no such curve, though single readings can be large or run the other way.
Permitted responses: active, inactive

{"compound": "CCC1=C[C@@H]2CN(C1)Cc1c([nH]c3ccccc13)[C@@](C(=O)OC)(c1cc3c(cc1OC)N(C)[C@@H]1[C@@](O)(C(=O)OC)[C@H](OC(C)=O)[C@]4(CC)C=CCN5CC[C@]31[C@@H]54)C2", "class": "active"}
{"compound": "Nc1ccn([C@@H]2O[C@H](CO)[C@H](O)C2(F)F)c(=O)n1", "class": "active"}
{"compound": "CC(=O)SC[C@@H](C)C(=O)N1CCC[C@H]1C(=O)N[C@@H](Cc1ccccc1)C(=O)O", "class": "inactive"}
{"compound": "Cc1ccc2nc(NC(=O)CSc3nc4c(c(=O)n3-c3ccccc3)SCC4)sc2c1", "class": "active"}
{"compound": "COc1ccc2c(OCc3nnc4ccc(-c5ccccc5)nn34)ccnc2c1", "class": "inactive"}
{"compound": "COc1cc(-c2nn(C3CCC(N4CCN(C(C)=O)CC4)CC3)c3ncnc(N)c23)ccc1NC(=O)c1cc2ccccc2n1C (centres undefined)", "class": "active"}

Would you mind telling me which call this test gave "CCS(=O)(=O)c1cccc(-c2cc(C(=O)NC3CCN(C)CC3)c(C)c3[nH]c4ncc(C)cc4c23)c1" ?
active

Which outcome was assigned to "CC(C)(C)OC(=O)Nc1ccc(-c2cc(C(=O)NCCCCCCC(=O)NO)no2)cc1" in this test?
active

====

- procedure_details: qHTS assay for measurement of the activity of small molecule inhibitors on Zika virus induced Caspase-3 activity in human iPSC derived neural progenitor cells (hNPCs) (AID 1224857); also: % of control where 0% means no effect; nearly all actives have a fitted effect of over 65% in size
- experimental_parameters: hNPCs ZIKV-induced caspase-3/7, Caspase-Glo luminescence, 6 h; series mostly up to 45.7 µM
Results filed as inconclusive are left out. Active and inactive are the calls of the source. The call rests on the fitted dose curve; in most records, active means well fitted inhibition curve with a large enough effect; inconclusive means small, poorly fitted or top-dose-only effect; inactive means no such curve, though single readings can be large or run the other way.
Tick one outcome: 1 (yes) for active, 0 (no) for inactive

{"compound": "CNC(=O)c1nn(C)c2c1C(C)(C)Cc1cnc(Nc3ccc(N4CCN(C)CC4)cc3)nc1-2", "class": "0 (no)"}
{"compound": "CC1(O)CC(c2nc(-c3ccc4ccc(-c5ccccc5)nc4c3)c3c(N)nccn23)C1 (stereo not given)", "class": "0 (no)"}
{"compound": "Clc1ccc2ncc(-c3cccc(NC4CNC4)n3)n2c1", "class": "0 (no)"}
{"compound": "CCN1CCN(CC(=O)Nc2ccc(-c3cccc4c(=O)cc(N5CCOCC5)oc34)c3sc4ccccc4c23)CC1", "class": "0 (no)"}

Dear all, I need the recorded test outcome for "CCC(=C(c1ccccc1)c1ccc(OCCN(C)C)cc1)c1ccccc1" , thank you.
0 (no)

====

- procedure_details: qHTS Screen of the MIPE 4.0 Collection Against Ewings Sarcoma (RDES) (AID 1259252); also: potency is read from the fitted curve at half-maximal effect; nearly all actives have a fitted effect of over 35% in size
- experimental_parameters: RD-ES Ewing sarcoma viability, CellTiter-Glo, 48 h; series mostly up to 45.8 µM
Results filed as inconclusive are left out. The source made the active and inactive calls. Calls come from the whole dose curve; as a rule, active = well fitted inhibition curve with a large enough effect; inconclusive = small, poorly fitted or top-dose-only effect; inactive = no such curve, though single readings can be large or run the other way.
metric: Potency

Sample records with Potency:
{"compound": "CC[C@@H]1C(=O)N(C)c2cnc(Nc3ccc(C(=O)NC4CCC(N5CCN(CC6CC6)CC5)CC4)cc3OC)nc2N1C(C)C (stereo partly specified)", "Potency": "105 nM (active)"}
{"compound": "Cc1cc(Nc2cc(NC(=O)c3c(Cl)cccc3Cl)ccn2)nc(N)n1", "Potency": "332 nM (active)"}
{"compound": "CN(C)CCCN=c1c2ccccc2n(C)c2[nH]c(=O)n(C)c(=O)c12", "Potency": "2640 nM (active)"}
{"compound": "Cc1cc(Nc2ncnc3ccc(-c4ccc(CNCCS(C)(=O)=O)o4)cc23)ccc1Oc1ccn2ncnc2c1", "Potency": "18700 nM (active)"}
{"compound": "COc1cc(=C2C=c3ccccc3=N2)[nH]c1=Cc1[nH]c(C)cc1C", "Potency": "1870 nM (active)"}

Input "Nc1cccc(-c2cc3c(Oc4cccc(O)c4)ncnc3[nH]2)c1" . Output Potency: 2350 nM (active)

// sample "NC1(Cc2ccc(Cl)cc2)CCN(c2ncnc3[nH]ccc23)CC1" , its Potency was 16600 nM (active)

====

- procedure_details: qHTS of pediatric cancer cell lines to identify multiple opportunities for drug repurposing: Primary screen for RD cells (AID 1347104); also: nearly all actives have a fitted effect of over 55% in size
- experimental_parameters: RD rhabdomyosarcoma viability, CellTiter-Glo luminescence, 48 h; series mostly up to 46 µM
Inconclusive results are not listed. The source made the active and inactive calls. The call rests on the fitted dose curve; in most records, active means well fitted cell-killing curve with a large enough effect; inconclusive means small, poorly fitted or top-dose-only effect; inactive means flat fitted curve, though single readings scatter.
Give your call using only these classes: active, inactive

{"compound": "CC(C)c1cc(-c2n[nH]c(=O)n2-c2ccc3c(ccn3C)c2)c(O)cc1O", "class": "active"}
{"compound": "CC1COC2(CCN(c3nc(=O)c4cc(C(F)(F)F)cc([N+](=O)[O-])c4s3)CC2)O1 (configuration not stated)", "class": "inactive"}
{"compound": "COc1ccc(C(=O)CC2(O)C(=O)Nc3c(Cl)ccc(Cl)c32)cc1 (configuration not stated)", "class": "active"}
{"compound": "CCN1CCN(Cc2ccc(-c3cc4c(N[C@H](C)c5ccccc5)ncnc4[nH]3)cc2)CC1", "class": "active"}
{"compound": "CCN1CCN(CC(=O)Nc2ccc(-c3cccc4c(=O)cc(N5CCOCC5)oc34)c3sc4ccccc4c23)CC1", "class": "active"}

Tell me the assay call for "Fc1cc(-c2cccc3ncc(-c4cnn(C5CCNCC5)c4)nc23)cc(F)c1CN1CCOCC1" please.
active

# outcome recorded in this test, key = "COc1cc2c(Oc3ccc4[nH]c(C)cc4c3F)ncnc2cc1OCCCN1CCCC1"
active
